# Tested system: complement C5 (full length) (Homo sapiens, UniProt P01031)
# Sequence (P01031 whole entry): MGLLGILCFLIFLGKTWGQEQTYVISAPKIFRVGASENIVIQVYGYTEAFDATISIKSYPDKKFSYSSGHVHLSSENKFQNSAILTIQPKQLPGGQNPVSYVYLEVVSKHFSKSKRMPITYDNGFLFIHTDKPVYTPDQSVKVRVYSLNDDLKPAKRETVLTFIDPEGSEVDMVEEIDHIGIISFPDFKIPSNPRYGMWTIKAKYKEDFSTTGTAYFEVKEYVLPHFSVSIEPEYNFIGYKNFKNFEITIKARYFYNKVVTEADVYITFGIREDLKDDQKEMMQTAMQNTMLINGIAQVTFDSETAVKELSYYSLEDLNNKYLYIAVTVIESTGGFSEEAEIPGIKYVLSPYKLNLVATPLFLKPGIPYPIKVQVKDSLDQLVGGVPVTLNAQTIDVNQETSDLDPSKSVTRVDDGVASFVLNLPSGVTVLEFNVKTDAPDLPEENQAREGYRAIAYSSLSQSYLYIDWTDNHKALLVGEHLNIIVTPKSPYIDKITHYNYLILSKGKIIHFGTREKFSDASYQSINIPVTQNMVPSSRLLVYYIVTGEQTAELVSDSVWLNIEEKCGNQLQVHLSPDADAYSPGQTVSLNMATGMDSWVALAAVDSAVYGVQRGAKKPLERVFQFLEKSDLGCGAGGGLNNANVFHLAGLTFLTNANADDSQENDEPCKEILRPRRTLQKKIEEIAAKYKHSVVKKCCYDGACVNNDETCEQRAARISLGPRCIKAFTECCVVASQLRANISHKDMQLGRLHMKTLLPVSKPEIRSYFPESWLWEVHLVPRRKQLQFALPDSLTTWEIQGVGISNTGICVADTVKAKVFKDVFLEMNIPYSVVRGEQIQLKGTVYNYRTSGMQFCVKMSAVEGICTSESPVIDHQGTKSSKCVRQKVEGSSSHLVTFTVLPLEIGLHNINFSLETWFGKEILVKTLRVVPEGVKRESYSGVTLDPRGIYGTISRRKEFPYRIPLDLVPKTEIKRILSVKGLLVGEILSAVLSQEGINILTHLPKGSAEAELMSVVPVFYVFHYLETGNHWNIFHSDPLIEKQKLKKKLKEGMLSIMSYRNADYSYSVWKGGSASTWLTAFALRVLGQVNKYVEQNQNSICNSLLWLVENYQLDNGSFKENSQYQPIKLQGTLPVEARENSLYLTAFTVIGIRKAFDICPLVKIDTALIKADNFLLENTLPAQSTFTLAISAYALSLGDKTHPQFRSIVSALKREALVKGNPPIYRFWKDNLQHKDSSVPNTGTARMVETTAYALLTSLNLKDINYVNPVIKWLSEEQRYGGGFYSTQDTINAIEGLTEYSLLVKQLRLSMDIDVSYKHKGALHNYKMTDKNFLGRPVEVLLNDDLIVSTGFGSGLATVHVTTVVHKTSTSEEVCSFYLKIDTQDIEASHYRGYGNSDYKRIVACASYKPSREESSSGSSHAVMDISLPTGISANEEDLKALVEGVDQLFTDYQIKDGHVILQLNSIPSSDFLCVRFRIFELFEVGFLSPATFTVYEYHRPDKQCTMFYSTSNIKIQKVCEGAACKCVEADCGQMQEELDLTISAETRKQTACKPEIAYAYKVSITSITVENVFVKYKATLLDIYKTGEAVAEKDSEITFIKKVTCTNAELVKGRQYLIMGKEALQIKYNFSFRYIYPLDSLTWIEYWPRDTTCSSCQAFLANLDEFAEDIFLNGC
# Method notes: filter; PBS, 1 mM MgCl2, 23 C, 4 h; 0.6 nM at 37 C; kinetic estimate 0.07 nM (koff 0.013 /min, kon 0.18 /nM/min)
# Test conditions: tags: Quidel / Complement Technologies A120.14 / Advanced Research Technologies; label: 5'-32P; stem-loop
Observed property: pKd
Conceptually, pKd converts a concentration in mol/L into minus its log10.

Q: // pKd lookup, key: CGCCGCGGUCUCAGGCGCUGAGUCUGAGUUUACCUGCG (ssRNA, 2'-F all C and U; 2'-OMe purines except three 2'-OH purines; 3' inverted dT) [ARC186]
Result: 10.10
